Give protein stability index for every item shown.
B1: P2RY14 (parent)
chain: KLLSVIVWMLMLLLAVPNIILTNQ

variants of: B1; assay: protein stability index of a GFP-peptide fusion (GPS, HEK-293T) (PSI 1-6); higher = more stable; conditions: c terminus: a fixed tail appended;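 note: lentivirally expressed fusions sorted by FACS into six bins by GFP to DsRed ratio, PSI derived from sequencing read proportions per bin multiplied by bin number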

Take a look at these entries with their results.
MUTATION_STRING	protein stability index
V7M	3.08
T22D	4.01
V7F	2.12
Q24F	2.69
V7T	3.76
L21R	4.98
N18T	2.89
L21E	2.6

Here are 3 variants. What values of protein stability index were reported for them?
1. M9K
2. T22V
3. M9G

1: 3.05; 2: 4.59; 3: 2.87
